PI (relative stability), 25% TIDE 2X with DTPA values for the molecules below.
- TEST_DESCRIPTION: Stability assay in 25% TIDE 2X detergent with DTPA (residual Abz-AGLA-Nba protease activity)
- Format: physicochemical
- TEST_SETTINGS: 60 min at 32°C; variant residual AGLA activity divided by wild-type residual activity
Write the value as a bare number.

Some solved cases for reference:
>  <MOLECULE>
T049I: single-substitution thermolysin variant (SEQ ID NO:3 numbering) (protein, listed as Geobacillus caldoproteolyticus) ITGTSTVGVGRGVLGDQKNINTTYSTYYYLQDNTRGNGIFTYDAKYRTILPGSLWADADNQFFASYDAPAVDAHYYAGVTYDYYKNVHNRLSYDGNNAAIRSSVHYSQGYNNAFWNGSQMVYGDGDGQTFIPLSGGIDVVAHELTHAVTDYTAGLIYQNESGAINEAISDIFGTLVEFYANKNPDWEIGEDVYTPGISGDSLRSMSDPAKYGDPDHYSKRYTGTQDNGGVHINSGIINKAAYLISQGGTHYGVSVVGIGRDKLGKIFYRALTQYLTPTSNFSQLRAAAVQSATDLYGSTSQEVASVKQAFDAVGVK

>  <TEST_VALUE>
1.01

$$$$
>  <MOLECULE>
Y151S: single-substitution thermolysin variant (SEQ ID NO:3 numbering) (protein, listed as Geobacillus caldoproteolyticus) ITGTSTVGVGRGVLGDQKNINTTYSTYYYLQDNTRGNGIFTYDAKYRTTLPGSLWADADNQFFASYDAPAVDAHYYAGVTYDYYKNVHNRLSYDGNNAAIRSSVHYSQGYNNAFWNGSQMVYGDGDGQTFIPLSGGIDVVAHELTHAVTDSTAGLIYQNESGAINEAISDIFGTLVEFYANKNPDWEIGEDVYTPGISGDSLRSMSDPAKYGDPDHYSKRYTGTQDNGGVHINSGIINKAAYLISQGGTHYGVSVVGIGRDKLGKIFYRALTQYLTPTSNFSQLRAAAVQSATDLYGSTSQEVASVKQAFDAVGVK

>  <TEST_VALUE>
1.23

$$$$
>  <MOLECULE>
Y151N: single-substitution thermolysin variant (SEQ ID NO:3 numbering) (protein, listed as Geobacillus caldoproteolyticus) ITGTSTVGVGRGVLGDQKNINTTYSTYYYLQDNTRGNGIFTYDAKYRTTLPGSLWADADNQFFASYDAPAVDAHYYAGVTYDYYKNVHNRLSYDGNNAAIRSSVHYSQGYNNAFWNGSQMVYGDGDGQTFIPLSGGIDVVAHELTHAVTDNTAGLIYQNESGAINEAISDIFGTLVEFYANKNPDWEIGEDVYTPGISGDSLRSMSDPAKYGDPDHYSKRYTGTQDNGGVHINSGIINKAAYLISQGGTHYGVSVVGIGRDKLGKIFYRALTQYLTPTSNFSQLRAAAVQSATDLYGSTSQEVASVKQAFDAVGVK

>  <TEST_VALUE>
1.25

$$$$

Next:
Quick check: PI (relative stability), 25% TIDE 2X with DTPA of I156W: single-substitution thermolysin variant (SEQ ID NO:3 numbering) (protein, listed as Geobacillus caldoproteolyticus) ITGTSTVGVGRGVLGDQKNINTTYSTYYYLQDNTRGNGIFTYDAKYRTTLPGSLWADADNQFFASYDAPAVDAHYYAGVTYDYYKNVHNRLSYDGNNAAIRSSVHYSQGYNNAFWNGSQMVYGDGDGQTFIPLSGGIDVVAHELTHAVTDYTAGLWYQNESGAINEAISDIFGTLVEFYANKNPDWEIGEDVYTPGISGDSLRSMSDPAKYGDPDHYSKRYTGTQDNGGVHINSGIINKAAYLISQGGTHYGVSVVGIGRDKLGKIFYRALTQYLTPTSNFSQLRAAAVQSATDLYGSTSQEVASVKQAFDAVGVK ?
1.12

These data points were gathered from patent US9976134B2.
